These measurements were taken from PubChem BioAssay AID652130.

Biological target: Perilipin-5 (Homo sapiens) + 1-acylglycerol-3-phosphate O-acyltransferase ABHD5 (Homo sapiens) (UniProt Q00G26+Q8WTS1)
Sequence (Q00G26 whole entry, looked up): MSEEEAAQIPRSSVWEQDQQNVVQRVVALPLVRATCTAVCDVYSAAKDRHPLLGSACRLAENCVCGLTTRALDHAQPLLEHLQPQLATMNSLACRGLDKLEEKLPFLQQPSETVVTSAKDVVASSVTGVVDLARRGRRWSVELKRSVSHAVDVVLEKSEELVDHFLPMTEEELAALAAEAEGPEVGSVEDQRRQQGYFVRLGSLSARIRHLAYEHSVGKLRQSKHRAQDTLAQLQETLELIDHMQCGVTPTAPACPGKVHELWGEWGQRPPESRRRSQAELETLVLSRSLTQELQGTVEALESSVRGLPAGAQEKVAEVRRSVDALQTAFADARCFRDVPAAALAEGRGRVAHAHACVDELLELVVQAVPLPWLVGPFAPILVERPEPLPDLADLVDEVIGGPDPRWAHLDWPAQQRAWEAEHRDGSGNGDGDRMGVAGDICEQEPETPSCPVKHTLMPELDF
Sequence (Q8WTS1 whole entry, looked up): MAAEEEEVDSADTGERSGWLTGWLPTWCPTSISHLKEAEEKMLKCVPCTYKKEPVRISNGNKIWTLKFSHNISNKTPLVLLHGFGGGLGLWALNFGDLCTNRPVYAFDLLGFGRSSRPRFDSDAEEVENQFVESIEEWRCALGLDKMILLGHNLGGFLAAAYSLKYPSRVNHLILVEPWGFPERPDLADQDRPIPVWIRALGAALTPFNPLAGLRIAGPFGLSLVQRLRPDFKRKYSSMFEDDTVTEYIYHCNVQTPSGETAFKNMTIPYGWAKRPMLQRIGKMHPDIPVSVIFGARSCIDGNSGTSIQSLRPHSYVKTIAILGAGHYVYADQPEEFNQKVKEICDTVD
Experiment: PubChem AID 652130
Conditions: ABHD5/PLIN5 interaction, luminescence, HEK293T-produced proteins
Activity calls are given as the source filed them. How the calls were made is not given here.
Answer with one of the outcomes given here: yes = active, no = inactive

Hi, do you know how O=C(Nc1ccc2ccccc2c1)c1nc(S(=O)(=O)Cc2ccccc2)ncc1Cl came out in this test? yes

For O=C(C1COc2ccccc2O1)N1CCN(S(=O)(=O)c2ccc3c(c2)OCCO3)CC1 (stereo not given) , what call appears in the results of this test? no

For this compound, state the assay outcome: Cc1ccc(CS(=O)(=O)c2ncc(Cl)c(C(=O)N3CCN(C)CC3)n2)cc1 yes

Record request — test call for Cc1ccc(NC(=O)c2nc(S(C)(=O)=O)ncc2Cl)cc1 yes

Which outcome did this test record for the compound COc1ccc(CC(=O)N2CCCN(S(=O)(=O)c3ccc(C)cc3)CC2)cc1OC ? no

Which result was noted for this compound in the test: Cc1ccc(CS(=O)(=O)c2ncc(Cl)c(C(=O)Nc3cccc4ccccc34)n2)cc1 yes

---
Please state the recorded outcome for this compound: CS(=O)(=O)c1ncc(Cl)c(C(=O)Nc2ccc(C(F)(F)F)cc2)n1 yes

Hey, what did the test say about COc1ccc(OCC(=O)Nc2ccc3c(c2)N(C(C)C)C(=O)c2ccccc2O3)cc1 ? no

For this compound, state the assay outcome: Cc1ccc2c(CC(=O)N3CCN(S(=O)(=O)c4ccc5c(c4)OCCCO5)CC3)coc2c1C yes

What did this assay record as the result for CN1C(=O)c2ccccc2Sc2ccc(NC(=O)NCCc3cccs3)cc21 ? yes

###

Molecular target: Perilipin-5 (Homo sapiens) + 1-acylglycerol-3-phosphate O-acyltransferase ABHD5 (Homo sapiens) (UniProt Q00G26+Q8WTS1)
Assay: PubChem AID 652130
Settings: ABHD5/PLIN5 interaction, luminescence, HEK293T-produced proteins
Active and inactive are the calls of the source. No rule for the calls is given here.
Please state which outcome applies, choosing from true (active), false (inactive)

Identify the outcome logged in this assay for the molecule shown: CCCC(=O)Nc1ccc2c(c1)C(=O)N(C)c1cc(C)ccc1O2 false

Identify the outcome logged in this assay for the molecule shown: COc1ccc(CC(=O)N2CCN(S(=O)(=O)c3ccc4c(c3)OCCCO4)CC2)cc1 false

Tell me the recorded outcome of this test for CN1C(=O)c2ccccc2Sc2ccc(NC(=O)NCCc3ccccc3)cc21 . true

Others:
GET /call?item= CN(C)CCCN(C(=O)c1cc2ccccc2oc1=O)c1nc2ccc(Cl)cc2s1 returns the recorded outcome of this test. false

Outcome logged for CCCS(=O)(=O)c1ncc(Cl)c(C(=O)Nc2ccc(C(=O)OC)cc2)n1 in this assay: true

###

Biological target: Perilipin-5 (Homo sapiens) + 1-acylglycerol-3-phosphate O-acyltransferase ABHD5 (Homo sapiens) (UniProt Q00G26+Q8WTS1)
Experiment: PubChem AID 652130
Settings: ABHD5/PLIN5 interaction, luminescence, HEK293T-produced proteins
The source made the active and inactive calls. How the calls were made is not given here.
Would you mind answering with one of these outcomes? 1 (yes) for active, 0 (no) for inactive

// known answers, use as guide
Per the assay record, what outcome was assigned to Cc1ccc(CS(=O)(=O)c2ncc(Cl)c(C(=O)Nc3cccc(C(F)(F)F)c3)n2)cc1 ? 1 (yes)

Please share the test call associated with Cc1ccc2cc(CC(=O)N3CCN(S(=O)(=O)c4ccc5c(c4)OCCO5)CC3)oc2c1 . 0 (no)

Outcome? CCCCCCCNC(=O)Nc1ccc2c(c1)Sc1ccccc1C(=O)N2C 0 (no)

Call for entry Cc1ccc(CS(=O)(=O)c2ncc(Cl)c(C(=O)Nc3nnc(C(C)C)s3)n2)cc1 : 0 (no)

Shift focus to the following entry.
What classification did Cc1ccc(CS(=O)(=O)c2ncc(Cl)c(C(=O)NCc3ccc4c(c3)OCO4)n2)cc1 end up with in this test? 1 (yes)
